Target: outer ubiquinone binding site of complex III (IIIQO) (Rattus norvegicus, UniProt P00159+P20788)
Construct: freshly isolated muscle mitochondria were assayed; from tissue; host or cells: rat skeletal muscle mitochondria (Wistar, Harlan Laboratories)
Assay: High-throughput screen: ROS production from outer ubiquinone binding site of complex III (IIIQO)
Format: biochemical
Details: Table 4; 5 mM succinate, 4 μM rotenone, 2.5 μM antimycin A; compounds 2.5 μM; percent change from DMSO; read-out: % Reduction in ROS production (IIIQO)
Assignment: determine reported inhibition at 2.5 µM for the given compounds.

Notebook: Cc1cc(C)c(S(=O)(=O)N2CCCC2=O)c(C)c1 , inhibition at 2.5 µM read as 25.1%

Fc1ccc(N2CCN(CC(c3ccccc3)c3ccccc3)CC2)cc1 has a reported inhibition at 2.5 µM of 26.8%

// next item, inhibition at 2.5 µM requested
get_value(item= CCCCN(Cc1ccccc1)Cc1cccc(Oc2ccc(Cl)cc2)c1 , readout=inhibition at 2.5 µM) returns 23.1%
